# target_of_assay: ~100 representative kinases (Homo sapiens, UniProt P15735)
# Construct: Recombinant protein kinase domains with a concentration of 2 μM
# Sequence (P15735 whole entry, the tested form may be a part): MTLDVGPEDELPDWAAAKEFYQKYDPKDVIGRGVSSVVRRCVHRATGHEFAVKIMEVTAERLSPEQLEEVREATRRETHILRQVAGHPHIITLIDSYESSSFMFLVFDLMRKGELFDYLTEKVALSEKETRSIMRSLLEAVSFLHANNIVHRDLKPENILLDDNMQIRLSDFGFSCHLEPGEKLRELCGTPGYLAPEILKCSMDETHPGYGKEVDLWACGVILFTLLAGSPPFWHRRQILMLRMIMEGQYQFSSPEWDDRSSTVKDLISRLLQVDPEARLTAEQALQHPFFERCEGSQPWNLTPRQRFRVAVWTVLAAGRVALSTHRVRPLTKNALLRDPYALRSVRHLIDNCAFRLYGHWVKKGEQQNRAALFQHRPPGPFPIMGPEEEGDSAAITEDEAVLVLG
# assay_explanation: DSF 100 kinase selectivity screen;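 also: compound tested at 20 µM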
# Type: binding
# study_conditions: protein PHKG2; average of three replicates
quantity: dTm (K)

A: COc1cc(S(C)(=O)=O)ccc1Nc1nc(N(C)C)c2c(Cl)c[nH]c2n1 [Compound 37]
B: O=C(Nc1ccccc1)C1(C(=O)Nc2cccc(-c3c[nH]c4ncnc(N5CCOCC5)c34)c2)CC1 [Compound 12]
C: CC(C)(C)c1cccc(NC(=O)C2(C(=O)Nc3cccc(-c4c[nH]c5ncnc(N6CCOCC6)c45)c3)CC2)c1 [Compound 22]
D: Cc1ccc(-n2nc(C(C)(C)C)cc2NC(=O)Nc2cccc(-c3c[nH]c4nc(Cl)nc(N5CCOCC5)c34)c2)cc1 [Compound 30]
E: O=C(Nc1cc(F)cc(Br)c1)C1(C(=O)Nc2cccc(-c3c[nH]c4ncnc(N5CCOCC5)c34)c2)CC1 [Compound 27]
Ranking field: dTm; order: falling. Please write the labels in the order that was asked for.
A, B, E, C, D
(A: 3.65 K, B: 1.25 K, E: 0.85 K, C: -0.10 K, D: -1.15 K)

A: O=C(Nc1cccc(-c2c[nH]c3ncnc(N4CCOCC4)c23)c1)C1(C(=O)Nc2ccc(F)c(Cl)c2)CC1 [Compound 18]
B: Cc1cc(NC(=O)C2(C(=O)Nc3ccc(F)cc3)CC2)cc(-c2c[nH]c3ncnc(N4CCOCC4)c23)c1 [Compound 6]
Given A and B , report the one with the higher recorded dTm. Choose, then provide that item's label.
A
(A: 3.01 K, B: 0.93 K)
